Numbers sourced from PubChem BioAssay (NCI).

tested on: DU-145 prostate; test: NCI-60 one-dose screen, 48 h; conditions: 10 µM unless noted
About 83,000 compounds went through this panel and 20% of them were active in at least one assay; those are over-represented in the sample as a whole. Calls of active or inactive are those of the source. Rule for the calls: active = growth percent below 10; inactive = the rest.
Mark one answer only. Choices: active, inactive

INSERT INTO results (molecule, cat) VALUES
  ('O=Cc1cc2ccccc2nc1Oc1ccc(C(F)(F)F)cc1', 'inactive');

In: What is the recorded call for this molecule in the test? Cc1cc2nc3c4cc([N+](=O)[O-])ccc4n(CCN(C)C)c3nc2cc1C
Out: active

In: For O=C(Cc1ccc(/C=C/C(=O)c2ncc[nH]2)cc1)Nc1ccc(Cl)cc1 , which call appears in the assay record?
Out: inactive

In: // param item: Cc1cccc(NC(=O)Nc2ccc(-n3cnc4cc(-c5ccc(O)cc5)ccc43)cc2)c1 ; yields the recorded call
Out: inactive

In: What call does the record list for CCN(CC)c1ccc(/C=N/NC(=O)CSc2nc3ccccc3c(=O)n2Cc2ccc(S(N)(=O)=O)cc2)c(O)c1 ?
Out: inactive

In: What is the recorded call for this molecule in the test? O=C(Cc1ccccc1)NNc1nc(Cl)nc(N2CCN(C(c3ccccc3)c3ccccc3)CC2)n1
Out: inactive
